Target Or Test System: Fuc(a1-2)[GalNAc(b1-3)]Gal
Assay Overview: glycan array binding signal (z-score within array); higher = stronger binding
Experimental Setup: glycan notation: IUPAC condensed, linker removed
This excerpt belongs to a sample that is enriched for the strongest signals.

[
  {
    "Binder": "MGL2 (Mus musculus), Q8JZN1 (protein) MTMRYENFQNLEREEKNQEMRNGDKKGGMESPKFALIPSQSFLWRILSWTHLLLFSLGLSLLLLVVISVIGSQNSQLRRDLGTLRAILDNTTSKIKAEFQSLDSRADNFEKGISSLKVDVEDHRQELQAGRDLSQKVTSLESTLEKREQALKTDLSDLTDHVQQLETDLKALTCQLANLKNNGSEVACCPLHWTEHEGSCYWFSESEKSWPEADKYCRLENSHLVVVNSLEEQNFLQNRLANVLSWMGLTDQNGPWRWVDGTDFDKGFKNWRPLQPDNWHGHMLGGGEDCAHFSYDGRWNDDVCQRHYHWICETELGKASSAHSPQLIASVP",
    "glycan array binding signal (z-score)": 12.2
  }
]

Provenance of the data: the supplement of paper PMC8728848
